Test system: HeLa, MDA-MB-486, MCF10, PC3, SCC7, HEK293T, NIH-3T3
Test: cell cytotoxicity, Alamar Blue assay, variety of cell lines
Type: cell-based
Conditions: 24 hours, FIG. 33, read-out: IC50 (cell viability)
Experimental: After the confirmation of the intra-mitochondrial assembly of peptide amphiphile, the toxicity of Mito-peptides toward a variety of cells was analyzed, the cells including cancer cell lines such as HeLa (ATCC, cervical cancer), MDA-MB-486 (ATCC) (mammary cancer) MCF10 (breast cancer), PC3 (ATCC, prostate cancer), SCC7 (ATCC, skin cancer), HEK293T (ATCC), and NIH-3T3 (ATCC). […]
Measured IC50 accompanies every entry in the list below.
endpoint: IC50 (µM)

1. NC(=O)[C@H](CCCCNCCCCC[P+](c1ccccc1)(c1ccccc1)c1ccccc1)NC(=O)[C@H](CC1CCCCC1)NC(=O)[C@H](CC1CCCCC1)NC(=O)CCCc1ccc2ccc3cccc4ccc1c2c34	10
2. CC(C)[C@H](NC(=O)CCCc1ccc2ccc3cccc4ccc1c2c34)C(=O)N[C@H](C(=O)N[C@@H](CCCCNCCCCC[P+](c1ccccc1)(c1ccccc1)c1ccccc1)C(N)=O)C(C)C	10
